Exercise: state measured viability, T/C for each of the compounds provided.
Test system: 349418-098-R tumor spheroid viability
Experiment: Anticancer human tumor 349418-098-R patient-derived lung adenocarcinoma cell line growth inhibition
Conditions: second compound 100 µM; first compound 0.949 µM; stronger effect = lower value; spheroids with HUVEC and MSC
Answers are plain numbers, in %.

// for each compound below, give its viability, T/C
1. O=C(c1cc(Cc2n[nH]c(=O)c3ccccc23)ccc1F)N1CCN(C(=O)C2CC2)CC1 + Cn1nnc2c(C(N)=O)ncn2c1=O
2. Cc1sc2c(c1C)C(c1ccc(Cl)cc1)=NC(CC(=O)Nc1ccc(O)cc1)c1nnc(C)n1-2 (centres undefined) + Cn1nnc2c(C(N)=O)ncn2c1=O
3. CNCc1ccc(-c2cc(-c3nc(-c4ccc(S(=O)(=O)C(C)C)cc4)cnc3N)on2)cc1 + Cn1nnc2c(C(N)=O)ncn2c1=O

output:
1. 78.2
2. 0.75
3. 4.72

input: Hello, I am looking for reported viability, T/C with 349418-098-R tumor spheroid viability for Cn1ncnc1[C@H]1c2n[nH]c(=O)c3cc(F)cc(c23)N[C@@H]1c1ccc(F)cc1 + Cn1nnc2c(C(N)=O)ncn2c1=O . Could you help?
output: 6.59

* * *

Tested on: 349418-098-R tumor spheroid viability
Assay: Anticancer human tumor 349418-098-R cell line growth inhibition;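 note: spheroids exposed to compound for 7 days before measurement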
Conditions: curve of first compound; second compound 0.00949 µM; spheroids with HUVEC and MSC
Reported Property: pIC50
Give bare numbers, as −log10 of the molar value.

Use these answered entries as a reference point.
Cn1ncnc1[C@H]1c2n[nH]c(=O)c3cc(F)cc(c23)N[C@@H]1c1ccc(F)cc1 + CC[C@@]1(O)C(=O)OCc2c1cc1n(c2=O)Cc2cc3c(CN(C)C)c(O)ccc3nc2-1: 5.96
Cc1sc2c(c1C)C(c1ccc(Cl)cc1)=NC(CC(=O)Nc1ccc(O)cc1)c1nnc(C)n1-2 (stereo not given) + CC[C@@]1(O)C(=O)OCc2c1cc1n(c2=O)Cc2cc3c(CN(C)C)c(O)ccc3nc2-1: 7.16
CNCc1ccc(-c2cc(-c3nc(-c4ccc(S(=O)(=O)C(C)C)cc4)cnc3N)on2)cc1 + CC[C@@]1(O)C(=O)OCc2c1cc1n(c2=O)Cc2cc3c(CN(C)C)c(O)ccc3nc2-1: 6.80

input: # get_value(readout='pIC50', item= COc1ccc([C@@H](O)c2cc(-c3ncnc4cc(N5CCOCC5)ccc34)c(F)cc2Cl)nn1 + CC[C@@]1(O)C(=O)OCc2c1cc1n(c2=O)Cc2cc3c(CN(C)C)c(O)ccc3nc2-1 )
output: 5.21

* * *

Test system: 349418-098-R tumor spheroid viability
Assay: Anticancer human tumor 349418-098-R cell line growth inhibition; active = viability on the fitted dose curve at most 10% of control; inactive = the rest;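 note: spheroids exposed to compound for 7 days before measurement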
Conditions: second compound 1 µM; first compound 0.949 µM; spheroids with HUVEC and MSC
Just give me one of these, please: active, inactive

Here's what some known entries look like.
CNCc1ccc(-c2cc(-c3nc(-c4ccc(S(=O)(=O)C(C)C)cc4)cnc3N)on2)cc1 + Cn1nnc2c(C(N)=O)ncn2c1=O: active
Cn1ncnc1[C@H]1c2n[nH]c(=O)c3cc(F)cc(c23)N[C@@H]1c1ccc(F)cc1 + Cn1nnc2c(C(N)=O)ncn2c1=O: inactive
Cc1sc2c(c1C)C(c1ccc(Cl)cc1)=NC(CC(=O)Nc1ccc(O)cc1)c1nnc(C)n1-2 (centres undefined) + Cn1nnc2c(C(N)=O)ncn2c1=O: active

# evaluate next
input: Record lookup: outcome of this test for O=C(c1cc(Cc2n[nH]c(=O)c3ccccc23)ccc1F)N1CCN(C(=O)C2CC2)CC1 + Cn1nnc2c(C(N)=O)ncn2c1=O ?
output: inactive

src = PubChem BioAssay AID1845197
